test target: AR (Homo sapiens)
Construct: endogenous in cells; host or cells: VCaP cells
Sequence (P10275 1-920): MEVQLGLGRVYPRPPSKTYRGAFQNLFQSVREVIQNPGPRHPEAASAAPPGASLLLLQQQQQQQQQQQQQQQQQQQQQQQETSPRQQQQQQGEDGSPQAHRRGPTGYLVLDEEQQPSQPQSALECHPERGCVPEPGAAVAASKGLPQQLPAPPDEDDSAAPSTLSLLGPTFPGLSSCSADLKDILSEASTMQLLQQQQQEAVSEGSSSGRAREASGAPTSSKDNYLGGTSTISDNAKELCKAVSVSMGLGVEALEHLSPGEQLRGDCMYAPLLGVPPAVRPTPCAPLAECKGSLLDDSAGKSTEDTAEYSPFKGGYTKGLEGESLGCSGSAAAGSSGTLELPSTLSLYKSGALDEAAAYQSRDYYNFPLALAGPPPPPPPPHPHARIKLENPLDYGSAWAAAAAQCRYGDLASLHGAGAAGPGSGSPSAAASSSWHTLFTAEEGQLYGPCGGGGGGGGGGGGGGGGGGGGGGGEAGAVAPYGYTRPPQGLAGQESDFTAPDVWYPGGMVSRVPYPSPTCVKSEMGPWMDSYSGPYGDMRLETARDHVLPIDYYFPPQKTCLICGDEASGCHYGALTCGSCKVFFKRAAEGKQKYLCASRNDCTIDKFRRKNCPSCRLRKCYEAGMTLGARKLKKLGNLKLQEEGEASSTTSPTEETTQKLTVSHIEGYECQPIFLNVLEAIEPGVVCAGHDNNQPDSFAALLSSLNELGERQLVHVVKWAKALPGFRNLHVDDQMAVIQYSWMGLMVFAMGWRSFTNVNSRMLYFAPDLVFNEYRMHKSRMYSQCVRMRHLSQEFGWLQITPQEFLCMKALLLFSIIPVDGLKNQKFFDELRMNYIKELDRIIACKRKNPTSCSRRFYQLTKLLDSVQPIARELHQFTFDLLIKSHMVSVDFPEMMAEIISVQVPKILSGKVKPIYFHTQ
experimental details: VCAP AR Degradation Assay
Assay type: cell-based
test conditions: VCaP cells, 24 h, AR ELISA; lowest measured AR level normalized to DMSO control (AR degradation efficiency)
Counter-ions that a name gives are not always drawn.
endpoint name: Y

query: Quick one: Y for C[C@@H]1CN(CCCC[C@H]2CC[C@H](N3C(=S)N(c4ccc(C#N)c(C(F)(F)F)c4)C(=O)C3(C)C)CC2)C[C@H](C)N1CC(=O)Nc1ccc(C2CCC(=O)NC2=O)cn1 (stereo partly shown) ?
result: * (0<Y≤20%)

query: Query (compound): C[C@@H]1CN(CCCC[C@H]2CC[C@H](N3C(=S)N(c4ccc(C#N)c(C(F)(F)F)c4)C(=O)C3(C)C)CC2)C[C@H](C)N1CC(=O)Nc1cc(C2CCC(=O)NC2=O)ccn1 (stereo partly shown) [Cmpd 14, hydrochloride] ; field requested: Y
result: * (0<Y≤20%)

query: What value of Y has been reported for the following compound? C[C@@H]1C[C@H](OCC[C@H]2CC[C@H](N3C(=S)N(c4cnc(C#N)c(C(F)(F)F)c4)C(=O)C3(C)C)CC2)C[C@H](C)N1CC(=O)Nc1cc(C2CCC(=O)NC2=O)ccn1 (stereo partly shown)
result: * (0<Y≤20%)

query: Need Y, item C[C@@H]1CN(CCO[C@H]2CC[C@H](N3C(=S)N(c4ccc(C#N)c(C(F)(F)F)c4)C(=O)C3(C)C)CC2)C[C@H](C)N1CC(=O)Nc1ccc(N2CCC(=O)NC2=O)cn1 [Cmpd 3, hydrochloride]
result: *** (40%<Y<80%)

query: Recorded Y of C[C@@H]1C[C@H](OCCO[C@H]2CC[C@H](N3C(=S)N(c4ccc(C#N)c(C(F)(F)F)c4)C(=O)C3(C)C)CC2)C[C@H](C)N1CC(=O)Nc1cc(C2CCC(=O)NC2=O)ccn1 (stereo partly shown) , please.
result: ** (20%<Y≤40%)

New cases:
query: Entry under review: C[C@@H]1CN(CCCC[C@H]2CC[C@H](N3C(=S)N(c4ccc(C#N)c(C(F)(F)F)c4)C(=O)C3(C)C)CC2)C[C@H](C)N1CC(=O)Nc1cc(N2CCC(=O)NC2=O)ccn1 . Reported Y?
result: ** (20%<Y≤40%)

query: So what does the record say about Y for C[C@@H]1CN(CCO[C@H]2CC[C@H](N3C(=S)N(c4ccc(C#N)c(Cl)c4)C(=O)C3(C)C)CC2)C[C@H](C)N1CC(=O)Nc1cc(C2CCC(=O)NC2=O)ccn1 (stereo partly shown) [Cmpd 4, hydrochloride] ?
result: ** (20%<Y≤40%)

query: GET /values?readout=Y&item= C[C@@H]1CN(CCCO[C@H]2CC[C@H](N3C(=S)N(c4ccc(C#N)c(C(F)(F)F)c4)C(=O)C3(C)C)CC2)C[C@H](C)N1CC(=O)Nc1cc(C2CCC(=O)NC2=O)ccn1 (stereo partly shown) [Cmpd 13, hydrochloride]
result: *** (40%<Y<80%)

query: Which value of Y has been reported for C[C@@H]1CN(CCO[C@H]2CC[C@H](N3C(=S)N(c4ccc(C#N)c(C(F)(F)F)c4)C(=O)C3(C)C)CC2)C[C@H](C)N1CC(=O)Nc1cc(C2CCC(=O)NC2=O)ccn1 (stereo partly shown) [Cmpd 1, hydrochloride] in the records?
result: ** (20%<Y≤40%)

query: What measured Y goes with CC1(C)C(=O)N(c2cnc(C#N)c(C(F)(F)F)c2)C(=S)N1[C@H]1CC[C@H](OCCN2CCN(CC(=O)Nc3cc(C4CCC(=O)NC4=O)ccn3)[C@@H](C(F)(F)F)C2)CC1 (stereo partly shown) ?
result: * (0<Y≤20%)
